conditions: in methanol, 298.2 K
endpointLabel: solubility (mole fraction)
Could you keep your reply to the number by itself?

# lookup: solubility (mole fraction) of C=C(C)[C@@H]1CC[C@]2(CO)CC[C@]3(C)[C@H](CC[C@@H]4[C@@]5(C)CC[C@H](O)C(C)(C)[C@@H]5CC[C@]43C)[C@@H]12
0.000328

----------
settings: in ethanol, 298.2 K
endpointLabel: solubility (mole fraction)
The answer should be written as a number, with no unit following it.

Form field: reported solubility (mole fraction) of C=C(C)[C@@H]1CC[C@]2(CO)CC[C@]3(C)[C@H](CC[C@@H]4[C@@]5(C)CC[C@H](O)C(C)(C)[C@@H]5CC[C@]43C)[C@@H]12
0.000898
